EXPERIMENT: Elimination half life in BALB/c mouse up to 1456 mg/kg, po administered as single dose
Type: ADME, organism-based
Design: route oral
TEST_CONTEXT: in vivo, read-out: beta t1/2 (converted)
ASSAY_ENDPOINT: half-life

Q) Which half-life is listed for `O=[N+]([O-])c1cn2c(n1)OC[C@@H](OCc1ccc(OC(F)(F)F)cc1)C2` ?
A) 4 h

====

EXPERIMENT: AUC (0 to t) in mouse at 100 or 50 mg/kg, po administered as single dose
Assay type: ADME, organism-based
Parameters: dose 50 mg/kg, route oral
TEST_CONTEXT: plasma
ASSAY_ENDPOINT: AUC(0-t) (ng·h/mL)
Respond with the bare value in ng·h/mL.

Q) Which AUC(0-t) is listed for `O=[N+]([O-])c1cn2c(n1)OC[C@@H](OCc1ccc(OC(F)(F)F)cc1)C2` ?
A) 70400
